tested on: Staphylococcus aureus; experiment: Antimicrobial activity against Staphylococcus aureus at 75 ug/ml after 24 hrs by agar diffusion method; assay type: functional; conditions: read-out: IZ
The label depends only on zone of inhibition at 75 µg/mL: T if it is at least 20 mm, F if it is smaller.

## Input Confirm if zone of inhibition at 75 µg/mL reported for the compound `CN1C[C@@H](c2ccc(Cl)cc2)[C@@]2(CCc3c([nH]c4ccccc34)C2=O)[C@]12C(=O)Nc1ccccc12` is 20 mm or above.
## Output F

## Input Confirm if zone of inhibition at 75 µg/mL reported for the compound `COc1ccc([C@@H]2CN(C)C3(C(=O)c4ccccc4C3=O)[C@]23CCc2c([nH]c4ccccc24)C3=O)cc1` is 20 mm or above.
## Output F

## Input Confirm if zone of inhibition at 75 µg/mL reported for the compound `CN1C[C@@H](c2ccc([N+](=O)[O-])cc2)[C@@]2(CCc3c([nH]c4ccccc34)C2=O)C12C(=O)c1ccccc1C2=O` is 20 mm or above.
## Output F

## Input Confirm if zone of inhibition at 75 µg/mL reported for the compound `CN1C[C@@H](c2ccccc2)[C@@]2(CCc3c([nH]c4ccccc34)C2=O)[C@]12C(=O)c1cccc3cccc2c13` is 20 mm or above.
## Output T

## Input Confirm if zone of inhibition at 75 µg/mL reported for the compound `CN1C[C@@H](c2ccccc2)[C@@]2(CCc3c([nH]c4ccccc34)C2=O)[C@]12C(=O)Nc1ccccc12` is 20 mm or above.
## Output F

## Input Confirm if zone of inhibition at 75 µg/mL reported for the compound `COc1ccc([C@@H]2CN(C)[C@@]3(C(=O)Nc4ccccc43)[C@]23CCc2c([nH]c4ccccc24)C3=O)cc1` is 20 mm or above.
## Output F

## Input Confirm if zone of inhibition at 75 µg/mL reported for the compound `CN1C[C@@H](c2ccc([N+](=O)[O-])cc2)[C@@]2(CCc3c([nH]c4ccccc34)C2=O)[C@]12C(=O)c1cccc3cccc2c13` is 20 mm or above.
## Output T

## Input Confirm if zone of inhibition at 75 µg/mL reported for the compound `CN1C[C@@H](c2ccc(Br)cc2)[C@@]2(CCc3c([nH]c4ccccc34)C2=O)[C@]12C(=O)Nc1ccccc12` is 20 mm or above.
## Output F
